assay-name: INS-1 cell viability (Cell Titer-Glo, ATP)
Type: cell-based, Rat
protocol-conditions: rat, INS-1 cells, 72 hrs treatment
reported-property: CC50 at 72 h

O=S(=O)(NCC1CCCN(c2ncnc3ccc(C(F)(F)F)cc23)C1)C1CCCCC1 (stereo not shown)    7 µM
CS(=O)(=O)NCC1CCCN(c2ncnc3cccc(Cl)c23)C1 (stereo not shown)    > 100 µM
CS(=O)(=O)NC1CCCN(c2ncnc3cc(F)ccc23)C1 (stereo not shown)    65 µM
NC(=O)c1cc2ncnc(N3CCCC(CNS(=O)(=O)C4CC4)C3)c2cc1F (stereo not shown)    > 100 µM
CS(=O)(=O)NCC1CCCN(c2nc(O)nc3ccc(C(F)(F)F)cc23)C1 (stereo not shown)    > 100 µM
CS(=O)(=O)NCC1CCCN(c2ncnc3ccc(C(=O)O)cc23)C1 (stereo not shown)    > 100 µM
CS(=O)(=O)NCC1CCCN(c2ncnc3cc(F)c(C#N)cc23)C1 (stereo not shown)    > 100 µM
CS(=O)(=O)NCC1CN(c2ncnc3ccc(F)cc23)CCO1 (stereo not shown)    > 100 µM
CS(=O)(=O)NCC1CCCN(c2ncnc3cc(F)ccc23)C1 (stereo not shown)    > 100 µM
O=S(=O)(NCC1CCCN(c2ncnc3ccc(F)cc23)C1)C1CC1 (stereo not shown)    57 µM
CS(=O)(=O)NCC1CCCN(c2ncnc3cc(C#N)c(F)cc23)C1 (stereo not shown)    > 100 µM
N#Cc1cc2ncnc(N3CCCC(CNS(=O)(=O)C(F)(F)F)C3)c2cc1F (stereo not shown)    > 100 µM
CS(=O)(=O)NCC1CCCN(c2ncnc3cc(O)c(C(F)(F)F)cc23)C1 (stereo not shown)    > 100 µM
CS(=O)(=O)NCC1CCCN(c2ncnc3cc(C(=O)O)ccc23)C1 (stereo not shown)    > 100 µM
CS(=O)(=O)NCC1CCCN(c2ncnc3ccc(C#N)cc23)C1 (stereo not shown)    42 µM
CS(=O)(=O)NCC1CCCN(c2ncnc3ccc(S(C)(=O)=O)cc23)C1 (stereo not shown)    > 100 µM
CS(=O)(=O)NCC1CCCN(c2ncnc3ccc(N4CCOCC4)cc23)C1 (stereo not shown)    > 100 µM
CS(=O)(=O)NCC1CCCN(c2ncnc3c(F)cccc23)C1 (stereo not shown)    > 100 µM
CS(=O)(=O)NCC1CCCN(c2ncnc3cccc(F)c23)C1 (stereo not shown)    > 100 µM
COc1ccc2ncnc(N3CCCC(CNS(C)(=O)=O)C3)c2c1 (stereo not shown)    > 100 µM
CC(C)N(CC1CCCN(c2ncnc3ccc(F)cc23)C1)S(=O)(=O)c1ccccc1 (stereo not shown)    4 µM
CS(=O)(=O)NCC1CCCN(c2ncnc3c(Cl)cc(F)cc23)C1 (stereo not shown)    > 100 µM

* * *

Each entry below lists one item and its recorded CC50 at 72 h value.
assay-name: INS-1 cell viability (Cell Titer-Glo, ATP)
Assay type: cell-based, Rat
protocol-conditions: rat, INS-1 cells, 72 hrs treatment
Procedure: INS-1 cell viability was determined based on quantification of ATP using Cell Titer-Glo Luminescent Cell Viability Assay kit (Promega #G7572), which indicates the presence of metabolically active cells. Briefly, INS-1 cells were seeded into 96-well plates at a cell density of 4.5×10^4 and 3.5×10^4 cells per well and incubated overnight at 37° C. with 5% CO2. […] Cell Titer-Glo reagent was added to the cells and Luminescence was acquired on Synergy 4 Reader ([…]).
reported-property: CC50 at 72 h

CS(=O)(=O)NCC1CCCN(c2ncnc3cc(N4CCOCC4)c(F)cc23)C1 (stereo not drawn) [Compound 23]    > 100 µM
CS(=O)(=O)NCC1CCCN(c2nc(-c3ccccc3)nc3ccccc23)C1 (stereo not drawn) [Compound 9]    71 µM
CS(=O)(=O)NC1CCCN(c2ncnc3cc(F)c(C(F)(F)F)cc23)C1 (stereo not drawn) [Compound 39]    > 100 µM
CC(C)N(CC1CCCN(c2ncnc3ccccc23)C1)S(C)(=O)=O (stereo not drawn) [Compound 40]    70 µM
CS(=O)(=O)NCC1CCCN(c2ncnc3cc(C(N)=O)c(F)cc23)C1 (stereo not drawn) [Compound 21]    > 100 µM
CS(=O)(=O)NC1CCCN(c2ncnc3ccc(Cl)cc23)C1 (stereo not drawn) [Compound 35]    41 µM
O=S(=O)(NCC1CCCN(c2ncnc3ccc(C(F)(F)F)cc23)C1)c1ccc(Cl)cc1 (stereo not drawn) [Compound 56]    17 µM
CS(=O)(=O)NCC1CCCN(c2ncnc3ccc(-c4ccccn4)cc23)C1 (stereo not drawn) [Compound 27]    70 µM
CS(=O)(=O)NC1CCCN(c2ncnc3ccccc23)C1 (stereo not drawn) [Compound 31]    67 µM

* * *

Test system: INS-1 cells
assay-name: INS-1 cell viability (Cell Titer-Glo, ATP)
Type: cell-based, Rat
protocol-conditions: 72 hrs treatment, hydrochloride
reported-property: CC50

CS(=O)(=O)NCC1CCCN(c2ncnc3ccc(C(F)(F)F)cc23)C1.Cl (stereo not shown) [Compound 11a, hydrochloride]    > 100 µM

* * *

assay-name: INS-1 cell viability (Cell Titer-Glo, ATP)
Format: cell-based, Rat
protocol-conditions: rat, INS-1 cells, 72 hrs treatment
reported-property: CC50 at 72 h

CS(=O)(=O)NC1CCCN(c2ncnc3cc(C#N)c(F)cc23)C1 (stereo not drawn)    35 µM
COc1cc2ncnc(N3CCCC(CNS(C)(=O)=O)C3)c2cc1OC (stereo not drawn)    > 100 µM
CS(=O)(=O)NCC1CCN(c2ncnc3ccc(F)cc23)C1 (stereo not drawn)    > 100 µM
Cc1cc2ncnc(N3CCCC(CNS(C)(=O)=O)C3)c2cc1F (stereo not drawn)    > 100 µM
CC(C)c1nc(N2CCCC(CNS(C)(=O)=O)C2)c2ccccc2n1 (stereo not drawn)    73 µM
CC1(CNS(C)(=O)=O)CCCN(c2ncnc3cc(F)c(C#N)cc23)C1 (stereo not drawn)    > 100 µM
CC(NS(C)(=O)=O)C1CCCN(c2ncnc3cc(F)c(F)cc23)C1 (stereo not drawn)    > 100 µM
CS(=O)(=O)NCC1CCCN(c2ncnc3cc(F)c(F)cc23)C1 (stereo not drawn)    > 100 µM
CS(=O)(=O)NC1CCCN(c2ncnc3cc(F)c(F)cc23)C1 (stereo not drawn)    68 µM

* * *

assay-name: INS-1 cell viability (Cell Titer-Glo, ATP)
Type: cell-based, Rat
protocol-conditions: rat, INS-1 cells, 72 hrs treatment
reported-property: CC50 at 72 h

CS(=O)(=O)NCC1CCCCN1c1ncnc2cc(C#N)c(F)cc12 (centres unmarked)    > 100 µM
CS(=O)(=O)NCC1CCCN(c2ncnc3ccc(C(F)(F)F)cc23)C1 (centres unmarked)    56 µM
CC(C)Nc1nc(N2CCCC(CNS(C)(=O)=O)C2)c2ccccc2n1 (centres unmarked)    > 100 µM
CS(=O)(=O)NCC1CCCN(c2ncnc3cc(C(F)(F)F)ccc23)C1 (centres unmarked)    > 100 µM
CS(=O)(=O)NCC1CCCN(c2ncnc3ccc(-c4ncco4)cc23)C1 (centres unmarked)    > 100 µM

* * *

assay-name: INS-1 cell viability (Cell Titer-Glo, ATP)
Assay type: cell-based, Rat
protocol-conditions: rat, INS-1 cells, 72 hrs treatment
Each entry below lists one item and its recorded CC50 at 72 h value.
reported-property: CC50 at 72 h

CS(=O)(=O)NCC1CN(c2ncnc3cc(C(N)=O)c(F)cc23)CCO1 (stereo not drawn)    > 100 µM
CS(=O)(=O)NC1CCCN(c2ncnc3ccc(F)cc23)C1 (stereo not drawn)    33 µM
CS(=O)(=O)NC1CCCN(c2ncnc3ccc(C(F)(F)F)cc23)C1 (stereo not drawn)    > 100 µM
CS(=O)(=O)NCC1CCN(c2ncnc3ccc(F)cc23)CC1    > 100 µM
COc1ccc2ncnc(N3CCCC(CN(C(C)C)S(=O)(=O)c4ccccc4)C3)c2c1 (stereo not drawn)    7 µM
CS(=O)(=O)NCC1CCCN(c2ncnc3ccc(NC(=O)c4ccccn4)cc23)C1 (stereo not drawn)    > 100 µM
CS(=O)(=O)NC1CN(c2ncnc3ccc(F)cc23)C1    > 100 µM
CS(=O)(=O)NCC1(F)CCCN(c2ncnc3cc(F)c(C#N)cc23)C1 (stereo not drawn)    > 100 µM
CS(=O)(=O)NCC1CCCN(c2ncnc3ccc(F)cc23)C1 (stereo not drawn)    > 100 µM
CS(=O)(=O)NCC1CCCN(c2nc[n+]([O-])c3ccc(C(F)(F)F)cc23)C1 (stereo not drawn)    > 100 µM
CS(=O)(=O)NCC1CCCN(c2ncnc3cc(F)c(C(F)(F)F)cc23)C1 (stereo not drawn)    > 100 µM
CC(C)(C)C(=O)Nc1ccc2ncnc(N3CCCC(CNS(C)(=O)=O)C3)c2c1 (stereo not drawn)    > 100 µM
O=S(=O)(NCC1CCCN(c2ncnc3ccc(F)cc23)C1)N1CCOCC1 (stereo not drawn)    16 µM
O=S(=O)(NCC1CCCN(c2ncnc3ccc(C(F)(F)F)cc23)C1)C1CC1 (stereo not drawn)    43 µM
CS(=O)(=O)NCC1CCCN(c2nc(N3CCOCC3)nc3ccccc23)C1 (stereo not drawn)    > 100 µM
O=S(=O)(NCC1CCCN(c2ncnc3ccc(C(F)(F)F)cc23)C1)c1ccccc1 (stereo not drawn)    17 µM
CS(=O)(=O)NCC1(O)CCCN(c2ncnc3cc(F)c(C#N)cc23)C1 (stereo not drawn)    > 100 µM
CS(=O)(=O)NC1CCCN(c2ncnc3cc(F)c(C#N)cc23)C1 (stereo not drawn)    > 100 µM

All figures here come from patent US11524010B2.
